Target: T1, human Y2 receptor (human, UniProt P49146 1-381)
T1 sequence (looked up): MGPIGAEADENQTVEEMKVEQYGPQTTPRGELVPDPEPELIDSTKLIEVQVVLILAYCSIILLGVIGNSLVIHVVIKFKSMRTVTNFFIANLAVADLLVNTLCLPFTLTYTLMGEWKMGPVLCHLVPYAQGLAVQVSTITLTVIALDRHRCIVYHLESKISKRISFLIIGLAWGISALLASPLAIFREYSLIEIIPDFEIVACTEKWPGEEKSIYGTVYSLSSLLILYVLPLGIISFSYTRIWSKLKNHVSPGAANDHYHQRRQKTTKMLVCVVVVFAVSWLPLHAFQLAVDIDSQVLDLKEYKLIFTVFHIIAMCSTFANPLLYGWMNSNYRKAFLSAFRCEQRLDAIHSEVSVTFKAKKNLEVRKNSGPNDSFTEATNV
Assay: cell-based or functional assay
Non-standard residues stand in square brackets, D forms with d. No end group written: not given here. Phe(4-NH2) = Nc1ccc(C[C@H](N)C(=O)O)cc1; 4Amb = NCc1ccc(C(=O)O)cc1
Below is a list of entries, each paired with its recorded GBA EC50 Ratio (vs PYY(3-36)), [35S]GTPγS value.
Observed Property: GBA EC50 Ratio (vs PYY(3-36)), [35S]GTPγS (ratio)

binder="[4Amb]RA[Phe(4-NH2)]INLITRQRY-NH2 (N-terminus assumed; SMILES CC[C@H](C)[C@H](NC(=O)[C@H](Cc1ccc(N)cc1)NC(=O)[C@H](C)NC(=O)[C@H](CCCNC(=N)N)NC(=O)c1ccc(CN)cc1)C(=O)N[C@@H](CC(N)=O)C(=O)N[C@@H](CC(C)C)C(=O)N[C@H](C(=O)N[C@H](C(=O)N[C@@H](CCCNC(=N)N)C(=O)N[C@@H](CCC(N)=O)C(=O)N[C@@H](CCCNC(=N)N)C(=O)N[C@@H](Cc1ccc(O)cc1)C(N)=O)[C@@H](C)O)[C@@H](C)CC, also called compound No. 52) [4-Aminomethylbenzoyl-[Ala26, Phe(4NH2)27, Ile28,31]-PYY(25-36)]" reading=5.7
binder="[4Amb]RAYINLATRQRY-NH2 (N-terminus assumed; SMILES CC[C@H](C)[C@H](NC(=O)[C@H](Cc1ccc(O)cc1)NC(=O)[C@H](C)NC(=O)[C@H](CCCNC(=N)N)NC(=O)c1ccc(CN)cc1)C(=O)N[C@@H](CC(N)=O)C(=O)N[C@@H](CC(C)C)C(=O)N[C@@H](C)C(=O)N[C@H](C(=O)N[C@@H](CCCNC(=N)N)C(=O)N[C@@H](CCC(N)=O)C(=O)N[C@@H](CCCNC(=N)N)C(=O)N[C@@H](Cc1ccc(O)cc1)C(N)=O)[C@@H](C)O, also called compound No. 33) [4-Aminomethylbenzoyl-[Ala26,31, Ile28]-PYY(25-36)]" reading=17
